Answer each item with its documented ratio over background.
target: T1, soluble IGF-1R (recombinant human IGF-1R extracellular domain, R&D Systems Cat. # 391-GR/CF) (human, UniProt P08069 31-935); test: phage ELISA
T1 construct: extracellular domain; Bought protein; coated on plates (phage ELISA, TRF) or Eu-labelled (TR-FRET); also called sIGF-1R; rhIGF-1R
Answers are plain numbers, in ratio.

[
  {
    "binder": "LGVTDGFYAALGYLIHGVGQF (on phage) [20E2B-3-D11-IGFR]",
    "recorded.measurement": 12.2
  },
  {
    "binder": "PPLASDLDVQFYGWFVQQVSPPGRGG (on phage) [H2CA-2-B3-IGFR]",
    "recorded.measurement": 3.8
  }
]

Below are some binders; for each one, tell me its ratio over background.
1. RGKTAAVIVGRPADPFYHKLSELLQGG (on phage) [B6Hα-3-E8-IR]
2. VEGRGLFYDLLRQLLARRQNG (on phage) [20E2B-3-C6-IGFR]

Out:
[5.3, 16.8]

Please state, for each entry, its recorded ratio over background.
1. TLRSPTFYDWLEMVLTHGQGG (on phage) [20E2B-1-A8-IGFR]
2. AICDAGFHEHFYDWFALQVSDCGRQS (on phage) [H2CA-2-B11-IGFR]
3. RGMKEEVLVGGSTDPFYHKLSELLQGS (on phage) [B6Hα-3-F11-IR]

Out:
1: 4.4; 2: 4.6; 3: 18.7

Numbers sourced from patent US20040023887A1.
